The reported numbers originate from PubChem BioAssay (NCI).

system: UACC-257 melanoma; assay: NCI-60 one-dose screen, 48 h; details: 10 µM unless noted
The panel holds about 83,000 compounds, 20% with a hit somewhere; the sample as a whole holds those more often. Activity calls are given as the source filed them. The calls were made as follows: active = growth percent below 10; inactive = the rest.
Outcome codes: active, inactive

| molecule | assignedClass |
| --- | --- |
| Nc1nc(SCc2cccc([N+](=O)[O-])c2)c2[nH]cnc2n1 | inactive |
| NS(=O)(=O)c1ccc(CCN2C(=O)/C(=C\c3ccccc3)C=C2c2ccc(Cl)cc2)cc1 | inactive |
| Cn1cc(-c2noc(C(=O)c3cn(C)c4ncccc34)n2)c2ccccc21 | inactive |
| CC(C)OC(=O)Nc1cc(F)c(F)cc1F | inactive |
| N#C/C(C(=O)c1ccccc1)=C1/C(=O)Nc2ccc(Br)cc21 | inactive |
| C[n+]1cccc(NC(=O)c2ccc3ccc4ccc(C(=O)Nc5ccc[n+](C)c5)nc4c3n2)c1 | inactive |
| C=CCCC1(C)NC(=O)NC1=O (centres undefined) | inactive |
| Cc1cccc([N+](=O)[O-])c1I | inactive |
| O=C1NC(=O)C(Cc2ccccc2)(Cc2ccccc2)N1 | inactive |
| O=C(Nc1ccccc1)Nc1ccc(C(=O)/C=C/c2ccc(N3CCCC3)cc2)cc1 | inactive |
| O=C(N/N=C/c1c(Cl)cccc1Cl)c1cccc(Nc2ccnc(C(F)(F)F)c2)c1 | inactive |
| Nc1ccc(Cl)c([N+](=O)[O-])c1 | inactive |
| COc1ccc2nc3ccccc3c(NCCNCCO)c2c1 | active |
| O=C1CC(c2ccccc2)Cc2nc3ccc(Br)cc3cc21 (centres undefined) | inactive |
| CC[C@@H]1NC(=O)[C@@H]2CCCCN2C(=O)[C@@H]2CCCN2C(=O)[C@@H](NC(=O)[C@H](Cc2cc(F)cc(F)c2)NC(=O)Nc2ccc(C3CC3)cc2F)[C@H](C)OC(=O)[C@@H]2C[C@@H](C)CN2C1=O | inactive |
| CC(C)CCNCC(C)(C)O | inactive |
| CCc1ccc(NC(=O)N[C@@H](Cc2cc(F)cc(F)c2)C(=O)N[C@@H]2C(=O)N3C[C@H](O)C[C@H]3C(=O)N3CCOC[C@H]3C(=O)N[C@@H](C)C(=O)N3C[C@H](C)C[C@H]3C(=O)O[C@H]2C)cc1 | inactive |
| COc1ccc2nc3cc(Cl)ccc3c(Nc3ccc(O)c(CN4CCCC4)c3)c2c1 | active |
| CCOC(=O)c1nn(C2CCCCO2)c2ccc(NC(=O)CN3CCCC3)cc12 (centres undefined) | inactive |
| Cn1cc(-c2noc(-c3cn(C)c4ncc(F)cc34)n2)c2cc(Br)ccc21 | inactive |
| Nc1nc(N)c2c(n1)NC(c1ccc(F)cc1)C1CCc3ccccc3C1=N2 (centres undefined) | inactive |
| CCN1c2ccccc2C(Cl)(c2ccc(N(C)C)cc2)c2ccccc21 | inactive |
| CCOC(=O)c1nc2c3ccccc3ccn2c1C(=O)OC | inactive |
| CC(=O)Nc1ccc2nc3ccc(NC(C)=O)cc3[n+](-c3ccccc3)c2c1 | inactive |
| C[N+](C)(C)c1ncnc2[n-]cnc12 | active |
| C[C@@H]1C[C@H]2C(=O)O[C@@H](C)[C@H](NC(=O)[C@H](Cc3cc(F)cc(F)c3)NC(=O)Nc3ccc(C4CC4)cc3F)C(=O)N3CCC[C@H]3C(=O)N3CCCC[C@H]3C(=O)N[C@@H](C)C(=O)N2C1 | active |
| CCN(CC)CCCCCCNc1cccc2cc(Br)cnc12 | inactive |
| O=C1Nc2ccccc2/C1=C/C(=O)c1ccc(N2CCOCC2)cc1 | inactive |
| CCc1ccc(-c2ccc(COc3ccc(CC4SC(=O)NC4=O)cc3)cc2)cc1 (centres undefined) | inactive |
| COC(=O)[C@@H](NC(=O)NC(=O)NC(=O)CI)C(C)C | inactive |
| CC1Cc2c(Cl)ncnc2N(C)c2ccccc21 (centres undefined) | inactive |
| CCN(CC)CCCOc1ccc2c(c1)O/C(=C\c1cccc(OC)c1)C2=O | inactive |
| CCC(C)[C@H](NC(=O)NC(=O)NC(=O)CI)C(=O)OC (some centres undefined) | inactive |
| CSc1nc(=S)c2nc(SC)n(-c3ccccc3)c2[nH]1 | inactive |
| CCN(CC)CCCNCc1cc(-c2ccccc2)nc2ccccc12 | inactive |
| COC(=O)[C@]1(C)CC[C@]2(C)CC[C@]3(C)C(=CC(=O)[C@@H]4[C@@]5(C)CCC(=O)NC(C)(C)[C@@H]5CC[C@]43C)[C@@H]2C1 | active |
| CC(C)C1=NOC(=O)C1=Cc1cn(-c2ccccc2)nc1-c1ccc(Br)cc1 | inactive |
| CCCCC(CCCCCC(CCCC)C1NC(C)Cc2cc(OC)c(OC)cc21)C1NC(C)Cc2cc(OC)c(OC)cc21 (centres undefined) | active |
| C[C@@H](NC(=O)[C@@H](CC(=O)N1CCC(N2CCCCC2)CC1)N1C(=O)[C@@H](N2C(=O)OC[C@@H]2c2ccccc2)[C@H]1/C=C/c1cccc(Cl)c1)c1ccccc1 | inactive |

====

Test system: SR leukemia
Assay: NCI-60 one-dose screen, 48 h
Details: 10 µM unless noted
Description: Growth inhibition of the SR human tumor cell line is measured as a screen for anti-cancer activity. Cells are grown in 96 well plates and exposed to the test compound for 48 hours. Compounds are tested at a single concentration, which is 10^-5 M for most compounds. The reported endpoint is percent growth (GI% or GIPRCNT), where numbers from 0 - 100% represent growth inhibition, and numbers from -100% - 0 represent cell death. For example, a value of 40 represents 60% growth inhibition. […]
This is part of a sample that, as a whole, favours compounds with a hit. Of some 83,000 tested, about 20% had one in any assay. Calls of active or inactive are those of the source. The calls were made as follows: active = growth percent below 10; inactive = the rest.
Outcome codes: yes for active, no for inactive

| compound | assignedClass |
| --- | --- |
| N=C(N)c1ccc(-c2ccc(-c3ccc(-c4cccs4)s3)s2)cc1F | no |
| COc1ncc(-c2ccc3nccc(C#CCCCCC(=O)O)c3c2)cc1NS(=O)(=O)c1ccc(F)cc1F | no |
| CC(C)C1=NOC(=O)C1=Cc1cn(-c2ccco2)nc1-c1ccccc1 | yes |
| CCOc1cc(/C=N\NC(=O)N/N=C/c2ccc(O)c(OCC)c2)ccc1O | no |
| CCN(CC)c1ccc2cc(C(Nc3ccc(C)cc3)c3nnnn3C(C)(C)C)c(=O)oc2c1 (stereo not given) | no |
| CC(C)CCNCC(C)(C)O | no |
| CCOC(=O)c1nn(C2CCCCO2)c2ccc(NC(=O)CSc3nc4ccccc4c(=O)[nH]3)cc12 (stereo not given) | no |
| COc1cc(C)cc2oc3oc(=N)c(C(=O)c4ccccc4)cc3c(=O)c12 | no |
| Nc1nc(SCc2cccc([N+](=O)[O-])c2)c2[nH]cnc2n1 | no |
| CCn1cc(-c2cc(-c3ccc(Cl)cc3)nc(N)n2)c(-c2ccc(Br)cc2)n1 | no |
| CC1(C)NCCC[C@]2(C)[C@H]3C=CC4=C5C[C@](C)(CO)CC[C@]5(C)CC[C@@]4(C)[C@]3(C)CC[C@@H]12 | yes |
| CCCCCCCCCCCCCC[n+]1cccc(C(N)=O)c1 | yes |
| Cc1cccc(C[C@H](NC(=O)Nc2ccc(Cl)cc2F)C(=O)N[C@@H]2C(=O)N3C[C@H](OC(=O)CCN(C)C)C[C@H]3C(=O)N3CCCC[C@H]3C(=O)N[C@@H](C)C(=O)N3C[C@H](C)C[C@H]3C(=O)O[C@H]2C)c1 | no |
| NS(=O)(=O)c1ccc(CCN2C(=O)/C(=C\c3ccccc3)C=C2c2ccc(Cl)cc2)cc1 | no |
| COc1ccc(C2NC(=O)C(C#N)c3c2sc2c(F)cccc32)cc1 (stereo not given) | no |
| CCN(CC)CCCC(C)Nc1ccnc2cc(Cl)c(SCc3ccccc3)cc12 (stereo not given) | yes |
| O=C(Nc1ccc(CN2CCOCC2)c(C(F)(F)F)c1)c1nc2ccc3[nH]ncc3c2c2c1CCCC2 | no |
| CC1(C)C(=O)/C(=C\c2ccco2)C[C@]2(C)[C@H]3CC=C4[C@@H]5C[C@](C)(C(=O)O)CC[C@]5(C)CC[C@@]4(C)[C@]3(C)CC[C@@H]12 | no |
| NC(=O)CC1C=CCC1 (stereo not given) | no |
| O=C(NCCCCCCCNC(=O)OCc1ccc2c(Cl)cc(Cl)c(O)c2n1)OCc1ccc2c(Cl)cc(Cl)c(O)c2n1 | yes |
| C=C(C)[C@@H]1CC[C@]2(C(N)=O)CC[C@]3(C)[C@H](CC[C@@H]4[C@@]5(C)CC[C@H](O)C(C)(C)[C@@H]5CC[C@]43C)[C@@H]12 | no |
| COC(=O)[C@]1(C)CC[C@]2(C)CC[C@]3(C)C(=CC(=O)[C@@H]4[C@@]5(C)CCC(=O)NC(C)(C)[C@@H]5CC[C@]43C)[C@@H]2C1 | no |
| C[C@@H](NC(=O)[C@@H](CC(=O)N1CCC(N2CCCCC2)CC1)N1C(=O)[C@@H](N2C(=O)OC[C@@H]2c2ccccc2)[C@H]1/C=C/c1cccc(Cl)c1)c1ccccc1 | yes |
| CC1(C)CC(=O)c2c(ccc(C(=O)C[C@@H](N)CO)c2N)O1 | no |
| N#C/C(C(=O)c1ccccc1)=C1/C(=O)Nc2ccccc21 | no |
| Cc1cc(NN=C(c2ccc(O)cc2)c2ccc(O)cc2)c([N+](=O)[O-])cc1[N+](=O)[O-] | no |
| CC1Cc2c(Cl)ncnc2N(C)c2ccc(Cl)cc21 (stereo not given) | yes |
| O=S(=O)(NCc1ccccc1)c1ncnc2nc[nH]c12 | no |
| CC1(C)OC2[C@@H](CNC(=O)NC(=O)NC(=O)CI)O[C@@H](n3cnc4c(NC(=O)Nc5ccccc5)ncnc43)[C@H]2O1 (stereo not given in full) | yes |
| CCc1ccc(C2=C/C(=C/c3ccccc3)C(=O)N2CCc2ccc(S(N)(=O)=O)cc2)cc1 | no |
| CCCCN(CCCC)CC(O)c1ccc(OCc2ccccc2)c2ccccc12 (stereo not given) | yes |
| C=C(C)[C@@H]1CC[C@]2(C(=O)N3CCN(C)CC3)CC[C@]3(C)[C@H](CC[C@@H]4[C@@]5(C)C/C(=C/c6ccncc6)[C@H](O)C(C)(C)[C@@H]5CC[C@]43C)[C@@H]12 | yes |
| Oc1c(CNCCNCc2cc(Cl)cc(Cc3ccccc3)c2O)cc(Cl)cc1Cc1ccccc1 | yes |
| O=C(NNc1ccc(-c2ccccc2)nn1)c1ccccc1 | no |
| COc1ccc(-c2cc(-c3ccccc3)nc(SCCCCCC(=O)NO)n2)cc1 | no |
